# system_tested: T1, human CD112R on antigen-specific CD8+ T cells (human, UniProt Q6DKI7 1-326)
# T1 sequence (looked up): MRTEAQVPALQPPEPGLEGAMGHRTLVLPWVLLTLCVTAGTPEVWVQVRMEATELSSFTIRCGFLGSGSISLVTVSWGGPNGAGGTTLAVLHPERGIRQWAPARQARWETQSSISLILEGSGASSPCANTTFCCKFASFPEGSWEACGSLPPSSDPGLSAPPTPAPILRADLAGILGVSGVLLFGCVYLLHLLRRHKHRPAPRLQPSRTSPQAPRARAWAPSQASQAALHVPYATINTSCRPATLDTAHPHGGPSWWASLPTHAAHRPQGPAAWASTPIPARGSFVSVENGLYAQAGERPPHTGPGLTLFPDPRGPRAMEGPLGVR
# test_protocol: cell-based or functional assay

{"columns": ["binder", "IFN-γ(pg/ml) at 0.5µg/ml antibody [pg/mL]"],
 "data": [
  ["C13 (antibody, human IgG1, kappa, V domains shown) VH: EVQLQQSGPELVKPGASVKISCKASGYTFTDYFMNWVKQSHGKSLEWIGDINPNNGSPNYNQKFKGRATLTVDKSSSTAYMELRSLTSEDSAVYYCASGYFDVWGTGTTVTVSS VL: DIVMTQSPSSLSVSAGEKVTMSCKSSQSLLNSGTQKNYLAWYQQKPGQPPKLLIYGASTRESGVPDRFTGSGSGTDFTLTISSVQAEDLAVYYCQNDHSYPWTFGGGTKLEIKR", 624],
  ["C19 (antibody, human IgG1, kappa, V domains shown) VH: EVQLVESGGGLVKPGGSLKLSCAASGFTFSDYYMYWVRQTPEKRLEWVATISDAGGYTYYPDSVKGRFTISRDNARNSLYLQMSSLKSEDTAMYFCGREDLWGQGTSVTVSS VL: DIQMTQSPSSLSASLGERVSLTCRASQDIGYSLNWLQQEPDGSVRRLIYATSRLDSGVPKRFSGSRSGSDYSLTISSLESEDFVDYYCLQYASFPYTFGGGTKLEIKR", 571]
]}

meta.source: patent EP4644419A1
